# Target entity: human serum albumin (human) (UniProt P02768)
# Sequence (P02768 25-609 limits assumed): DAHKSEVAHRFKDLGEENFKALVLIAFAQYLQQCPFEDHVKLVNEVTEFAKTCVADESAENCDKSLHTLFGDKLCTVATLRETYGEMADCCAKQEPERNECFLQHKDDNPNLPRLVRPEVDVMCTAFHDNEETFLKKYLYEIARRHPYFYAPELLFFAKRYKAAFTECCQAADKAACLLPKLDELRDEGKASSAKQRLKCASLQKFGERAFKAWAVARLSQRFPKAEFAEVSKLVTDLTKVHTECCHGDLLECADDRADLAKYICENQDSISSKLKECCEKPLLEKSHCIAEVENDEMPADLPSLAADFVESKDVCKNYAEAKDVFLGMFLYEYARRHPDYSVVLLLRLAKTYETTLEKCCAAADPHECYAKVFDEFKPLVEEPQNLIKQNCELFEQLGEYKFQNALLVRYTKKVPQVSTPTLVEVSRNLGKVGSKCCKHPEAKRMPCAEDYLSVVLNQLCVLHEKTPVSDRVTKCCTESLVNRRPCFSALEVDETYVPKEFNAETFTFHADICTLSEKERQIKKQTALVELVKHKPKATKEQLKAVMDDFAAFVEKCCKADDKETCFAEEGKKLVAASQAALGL
# Assay protocol: primary solution ELISA screen
Assign labels as follows, please: yes (1) for RLU below 6000 RLU; no (0) for RLU equal to or exceeding 6000 RLU.

Study these solved cases before continuing.
SEQ ID NO 27 (designed binder, not shown: small tags and cut ends) MLPAPKNLVVSRVTEDSARLSWTAPDAAFDSFRISYAETVRQGEAIVLTVPGSERSYDLTVETGYRNWVMILGVKGGPGSLPLSAIFTT	yes (1)
SEQ ID NO 34 (designed binder, not shown: small tags and cut ends) MLPAPKNLVVSRVTEDSARLSWTAPDAAFDSFYITYVELNLAGEAIVLTVPGSERSYDLTGLKPGTEYPVPILGVKGGSLSQPLSAIFTT	no (0)
SEQ ID NO 29 (designed binder, not shown: small tags and cut ends) MLPAPKNLVVSRVTEDSARLSWTAPDAAFDSFWIEYWEAVGFGEAIVLTVPGSERSYDLTGLKPGTEYFVGIYGVKGGYLSAPLSAIFTT	yes (1)
SEQ ID NO 21 (designed binder, not shown: small tags and cut ends) MLPAPKNLVVSRVTEDSARLSWTAPDAAFDSFSIRYNEFIVAGEAIVLTVPGSERSYDLTGLKPGTEYDVPIAGVKGGGASWPLSAIVTT	no (0)
SEQ ID NO 37 (designed binder, not shown: small tags and cut ends) MLPAPKNLVVSRVTEDSARLSWTTPDAAFDSFPIYYWEVTITGEAIYLSVPGSERSYDLTGLKPGTEYPVDIPGVKGGAASPPLSAIFTT	no (0)

Below 6000 RLU on RLU? Entry SEQ ID NO 83 (designed binder, not shown: small tags and cut ends) MLPAPKNLVVSRVTEDSARLSWTAPDAAFDSFPIAYAEPRPDGEAIVLTVPGSERSYDLTGLKPGTEYSVLIHGVKGGLLSSPLSAISTT
no (0)

Below 6000 RLU on RLU? Entry SEQ ID NO 61 (designed binder, not shown: small tags and cut ends) MLPAPKNLVVSRVTEDSARLSWTAPDAAFDSFQIVYSELWIKGEAIVLTVPGSERSYDLTGLKPGTEYQVPIPGVKGGRNSFPLSAIFTT
no (0)

Below 6000 RLU on RLU? Entry SEQ ID NO 23 (designed binder, not shown: small tags and cut ends) MLPAPKNLVVSRVTEDSARLSWTAPDAAFDSFAIWYHEWYGDGEAIVLTVPGSERSYDLTGPKPGTEYRVRISGVKGGFESGPLSAIFTT
no (0)
